src = patent US20200140532A1

# OD 450 nm per entry
- study-system: T1, recombinant bovine Aggrecan G1-IGD-G2 (bovine, UniProt P13608 20-684, limits assumed)
- T1 construct: also called Bov G1-IGD-G2; Boy G1-IGD-G2
- assay-explanation: periplasmic extract ELISA

binder	measurement-units	OD 450 nm
C0101PMP609C09 (VHH, Tested as E. coli periplasmic extract; not shown: FLAG3 and His6 tags (phagemid pAX212)) VHH: DVQLVESGGGLVQPGGSLRLSCAASGTIFSINVMGWYRQAPGKEREFVAAITTGGRTNYADSVKGRFTISRDNSKNTVYLQMNSLRPEDTAVYYCNAEVTTGWVGYSWYDYWGQGTMVTVSS	OD 450 nm	1.08
C0101PMP112A03 (VHH, Tested as E. coli periplasmic extract; not shown: FLAG3 and His6 tags (phagemid pAX212)) VHH: EVQLVESGGGLVQPGGSLRLSCAASGSIFSNRFMYWYRQAPGKQRELVASITLSGSTNYADSVKGRFTISRDNAKNTVYLQMNSLKPEDTAVYYCNTFLQNSFYWGQGTQVTVSS	OD 450 nm	0.73
C0101PMP604G09 (VHH, Tested as E. coli periplasmic extract; not shown: FLAG3 and His6 tags (phagemid pAX212)) VHH: DVQLVESGGGLVQPGGSLRLSCVASGRTFSSYAMGWFRQAPGKEREFVAAITWSSATTYYADSVKGRFTISRDNSKNTVYLQMNSLRPEDTAVYYCAAARIPVGRRSENWDYWGQGTLVTVSS	OD 450 nm	1.21
C0101PMP117G09 (VHH, Tested as E. coli periplasmic extract; not shown: FLAG3 and His6 tags (phagemid pAX212)) VHH: EVQLVESGGGSALPGGSLRLSCAASGITFSSRYMRWYRQAPGRQRELVAAISSGGRTDYVDSVRGRFTLSINNAKNTVYLQMNDLKPEDTAVYYCYRPRMYVDGTYEKELWGQGTLVTVSS	OD 450 nm	0.76
C0101PMP114F08 (VHH, Tested as E. coli periplasmic extract; not shown: FLAG3 and His6 tags (phagemid pAX212)) VHH: EVQLVESGGGLVQAGGSLRLSCAASGSTFIINVVRWYRRTPGKQRELVATISSGGNANYVDSVRGRFSISRDGAKNAVDLQMNGLKPEDTAVYYCNVPTTHYGGVYYGPYWGQGTQVTVSS	OD 450 nm	1.18
